- assay: Selectivity index, ratio of IC50 for rat L6 cells to IC50 for chloroquine-sensitive Plasmodium falciparum NF54
- Assay type: toxicity
- testSettings: read-out: Ratio IC50
Note to self: selectivity ratio under 30 means yes (1), ties and anything higher get no (0).

Enquiry: Lab log: compare recorded selectivity ratio with 30; is it strictly lower for COc1cc(O)c(-c2ccc(OC)c3c(O)cc(C)c(-c4cc(-c5c(O)cc(OC)c6c5C[C@@H](C)N[C@H]6C)c5cc(C)cc(OC)c5c4O)c23)c2c1C(C)=N[C@H](C)C2 ?
Return: yes (1)

Enquiry: Lab log: compare recorded selectivity ratio with 30; is it strictly lower for COc1cc(O)c(-c2cc(-c3c(C)cc(O)c4c(OC)ccc(-c5c(O)cc(OC)c6c5C[C@@H](C)N[C@@H]6C)c34)c(O)c3c(OC)cc(C)cc23)c2c1[C@H](C)N[C@H](C)C2 ?
Return: no (0)

Enquiry: Lab log: compare recorded selectivity ratio with 30; is it strictly lower for COc1cc(OC)c(-c2ccc(O)c3c(OC)cc(C)cc23)c2c1C(C)=N[C@@H](C)C2 ?
Return: no (0)

Enquiry: Lab log: compare recorded selectivity ratio with 30; is it strictly lower for COc1cc(OC)c2c(c1-c1ccc(O)c3c(OC)cc(C)cc13)C[C@H](C)N[C@H]2C [ANCISTROEALAINE B] ?
Return: no (0)

Enquiry: Lab log: compare recorded selectivity ratio with 30; is it strictly lower for COc1cc(C)cc2c(-c3c(O)cc(O)c4c3C[C@@H](C)N[C@H]4C)ccc(O)c12 ?
Return: yes (1)

---

What IC50 was measured for each of the following?
- System: Plasmodium falciparum
- assay: Antiplasmodial activity against chloroquine and pyrimethamine-resistant Plasmodium falciparum K1 assessed as reduction in [3H]-hypoxanthine incorporation pretreated for 48 hrs followed by [3H]-hypoxanthine addition measured after 24 hrs by liquid scintillation counting method
- Type: functional, organism-based
Please don't drop the unit; write it after the number.

Enquiry: Please report IC50 for the following molecule: COc1cc(C)cc2c(-c3c(O)cc(O)c4c3C[C@@H](C)N[C@H]4C)ccc(O)c12
Return: 12.9 µM

Enquiry: Please report IC50 for the following molecule: COc1cc(O)c(-c2ccc(OC)c3c(O)cc(C)c(-c4cc(-c5c(O)cc(OC)c6c5C[C@@H](C)N[C@H]6C)c5cc(C)cc(OC)c5c4O)c23)c2c1C(C)=N[C@H](C)C2
Return: 0.126 µM

Enquiry: Please report IC50 for the following molecule: COc1cc(O)c(-c2cc(-c3c(C)cc(O)c4c(OC)ccc(-c5c(O)cc(OC)c6c5C[C@@H](C)N[C@@H]6C)c34)c(O)c3c(OC)cc(C)cc23)c2c1[C@H](C)N[C@H](C)C2
Return: 0.064 µM

Enquiry: Please report IC50 for the following molecule: COc1cc(OC)c(-c2ccc(O)c3c(OC)cc(C)cc23)c2c1C(C)=N[C@@H](C)C2
Return: 1.06 µM

Enquiry: Please report IC50 for the following molecule: COc1cc(OC)c2c(c1-c1ccc(O)c3c(OC)cc(C)cc13)C[C@H](C)N[C@H]2C [ANCISTROEALAINE B]
Return: 0.76 µM

---

- Tested on: Leishmania donovani
- assay: […] activity against Leishmania donovani MHOM-ET-67/L82 axenic amastigotes after 72 hrs by Alamar blue assay
- Type: functional, organism-based
- testSettings: MHOM-ET-67/L82, 72 h
quantity: IC50 (µM)
Hi! Could you send only the number? It should be in µM, unit omitted.

Enquiry: Please report IC50 for the following molecule: COc1cc(OC)c2c(c1-c1ccc(O)c3c(OC)cc(C)cc13)C[C@H](C)N[C@H]2C [ANCISTROEALAINE B]
Return: 37.9

Enquiry: Please report IC50 for the following molecule: COc1cc(OC)c(-c2ccc(O)c3c(OC)cc(C)cc23)c2c1C(C)=N[C@@H](C)C2
Return: 13.4

Enquiry: Please report IC50 for the following molecule: COc1cc(C)cc2c(-c3c(O)cc(O)c4c3C[C@@H](C)N[C@H]4C)ccc(O)c12
Return: 26.4
